Where these numbers come from: ChEMBL document CHEMBL1201862

Reported GI50 values are given for each entry in this list.
Test system: HOP-92
Experiment: NCI tumour cell line growth inhibition, 48 h
Activity calls are given as the source filed them. Cut-off read from the data, not from the text of the source: active = GI50 up to about 1.1 µM and inactive = higher.

COMPOUND	GI50
O=C1C(NCCF)=C(Cl)C(=O)c2ncccc21	2.08 µM (inactive)

In the following, a different compound is considered.
Incoming: Returns the measured GI50 for the input compound. Input: "COc1cc(S(=O)(=O)Nc2nc(-c3ccc(/N=C/c4cccs4)cc3)cs2)ccc1Cl"
Outgoing: 37.2 µM (inactive)

----------
System: SF-295
Assay: NCI tumour cell line growth inhibition, 48 h
The source made the active and inactive calls. Rule as the data show it: active = GI50 up to about 1.1 µM and inactive = higher.
Would you mind answering with one of these outcomes? y for active, n for inactive

COMPOUND	QUALITATIVE_LABEL
O=C1CCc2cc3c(cc21)C(C(=O)O)CC3 (centres undefined)	n
COc1cc(OC)cc(-c2cc(O)c3cc4c(cc3n2)OCO4)c1	y
CC1=C(C(=O)Nc2ccccc2C)C(/C=C/c2ccccc2)C(C(=O)Nc2ccccc2C)=C(C)N1	n

Now consider the entry below.
Incoming: Answer briefly: the call reported for Cc1nn(C(=O)c2ccc(Cl)cc2)c2c1C(c1ccccc1)SC(=N)N2 (centres undefined) in this assay.
Outgoing: n

----------
System: HL-60
Assay: NCI tumour cell line growth inhibition, 48 h
Active and inactive are the calls of the source. Cut-off read from the data, not from the text of the source: active = GI50 up to about 1.1 µM and inactive = higher.
Would you mind answering with one of these outcomes? 1.0 for active, 0.0 for inactive

MOLECULE	QUALITATIVE_LABEL
CC(=O)Nc1ccccc1SCCSSCCSc1ccccc1NC(C)=O	0.0
Cc1cccc2c(N)c3cccc(C(=O)NCCN(C)C)c3nc12	1.0
CSc1s[s+]c(SC)c1[O-]	0.0

Now consider the entry below.
Incoming: Answer briefly: the call reported for "COCOc1cc(OC)ccc1C=O" in this assay.
Outgoing: 0.0

----------
Tested on: MOLT-4
Assay: NCI tumour cell line growth inhibition, 48 h
Active and inactive are the calls of the source. No stated cut-off is given here; in the data, active = GI50 up to about 1.1 µM and inactive = higher.
Would you mind answering with one of these outcomes? active, inactive

COMPOUND	QUALITATIVE_LABEL
CCCCCCc1cc2cc(-c3cn4ccccc4n3)c(=O)oc2cc1O	inactive

Incoming: Answer briefly: the call reported for "C[C@H](C(=O)C12CC3CC(CC(C3)C1)C2)[C@H](O)c1ccccc1" in this assay.
Outgoing: inactive

Incoming: Answer briefly: the call reported for "O=c1c2cc(I)ccc2nc(Sc2ncccc2[N+](=O)[O-])n1Cc1ccccc1" in this assay.
Outgoing: inactive

Incoming: Answer briefly: the call reported for CC(C)N(C(=O)C12C3C4C1C1C2C3C41C(=O)O)C(C)C (stereo unspecified) in this assay.
Outgoing: inactive

Incoming: Answer briefly: the call reported for "O=C1CCC(=O)c2sccc2N1" in this assay.
Outgoing: inactive

Incoming: Answer briefly: the call reported for "CCOC(=O)Nc1nc2cc(Cn3cccc3)ccc2[nH]1" in this assay.
Outgoing: active

Incoming: Answer briefly: the call reported for "BrCCC[P+](c1ccccc1)(c1ccccc1)c1ccccc1" in this assay.
Outgoing: inactive

----------
Test system: SK-MEL-28
Assay: NCI tumour cell line growth inhibition, 48 h
Active and inactive are the calls of the source. Rule as the data show it: active = GI50 up to about 1.1 µM and inactive = higher.
Reported GI50 values are given for each entry in this list.

Answered cases to consult:
MOLECULE	VALUE_REPORTED
O=C(CC(=O)N(C(=O)/C=C\c1ccccc1)c1ccc(Cl)cc1)N1N=C(c2ccccc2)C(/N=N/c2cccc([N+](=O)[O-])c2)C1=O (configuration not stated)	11.5 µM (inactive)
COC(=O)c1ccc(NCC2=CC(=O)C=CC2=O)cc1	15.1 µM (inactive)
N=c1c2c(-c3ccccc3)c[nH]c2ncn1N	> 100 µM (inactive)
Cc1ccc(-c2nc(Cc3n[nH]c(-c4ccc(C)cc4)n3)n[nH]2)cc1	> 100 µM (inactive)
CCCCCCCCCC[C@@H](OC(C)=O)[C@@H]1CC[C@@H]([C@@H]2CC[C@@H]([C@@H](O)CC#C/C=C/CCCCCCC[C@@]3(Sc4ccccc4)C[C@H](C)OC3=O)O2)O1	> 10 µM (inactive)
COC(=O)C1=C(c2ccc3c(c2)OCO3)O[C@H](c2ccc3c(c2)OCO3)[C@H]1COC(C)=O	65 µM (inactive)

Incoming: Returns the measured GI50 for the input molecule. Input: "CCSc1nnc2c(-c3ccccc3)n[nH]c2n1"
Outgoing: > 100 µM (inactive)

Incoming: Returns the measured GI50 for the input molecule. Input: O=C(OC1C(Oc2ccccc2COC(=O)C2(O)C=CCCC2=O)OC(CO)C(O)C1O)c1ccccc1 (configuration not stated)
Outgoing: 68.4 µM (inactive)
